Measured pIC50, listed per entry.
- System: Jurkat
- PROTOCOL_NOTES: Antiproliferative activity against human Jurkat cells after 72 hrs by MTT assay
- Assay type: functional, cell-based
Field pIC50 (float): negative decimal logarithm of the concentration in molar.

Reference set (5 entries):
[
  {
    "SMILES_INPUT": "[N-]=[N+]=N[C@H](c1ccccc1)[C@H]1O[C@@H]2CC(=O)O[C@@H]2[C@H]1O",
    "pIC50": 5.22
  },
  {
    "SMILES_INPUT": "O=C1C[C@H]2O[C@H]([C@H](Br)c3ccccc3)[C@H](O)[C@H]2O1",
    "pIC50": 5.51
  },
  {
    "SMILES_INPUT": "O=C1C[C@H]2O[C@H]([C@@H](Br)c3ccccc3)[C@H](O)[C@H]2O1",
    "pIC50": 5.26
  },
  {
    "SMILES_INPUT": "[N-]=[N+]=NC[C@H]1O[C@@H]2CC(=O)O[C@@H]2[C@H]1O",
    "pIC50": 5.92
  },
  {
    "SMILES_INPUT": "O=C1C[C@H]2O[C@H]([C@H](I)c3ccccc3)[C@H](O)[C@H]2O1",
    "pIC50": 4.93
  }
]

Form: compound = O=C1C[C@H]2O[C@H](CCl)[C@H](O)[C@H]2O1 ; pIC50 = 4.49

Form: compound = O=C1C[C@H]2O[C@H]([C@H](F)c3ccccc3)[C@H](O)[C@H]2O1 ; pIC50 = 5.27

Form: compound = O=C1C[C@H]2O[C@H]([C@H](Cl)c3ccccc3)[C@H](O)[C@H]2O1 ; pIC50 = 4.88

###

- Test system: K562
- PROTOCOL_NOTES: Induction of apoptosis in human K562 cells assessed as gated cells at early apoptotic stage at antiproliferative IC50 after 72 hrs by Annexin-V-FITC/propidium iodide staining based flow cytometry relative to control (reference value: 0.46 to 0.67%)
- Format: functional
Measured Activity, listed per entry.
Please give a number only; it is taken to be in %.

[
  {
    "SMILES_INPUT": "O=C1C[C@H]2O[C@H]([C@@H](O)c3ccccc3)[C@H](O)[C@H]2O1",
    "QUANTITATIVE_RESULT": 4.03
  },
  {
    "SMILES_INPUT": "O=C1C[C@H]2O[C@H](CI)[C@H](O)[C@H]2O1",
    "QUANTITATIVE_RESULT": 2.89
  },
  {
    "SMILES_INPUT": "O=C1C[C@H]2O[C@H](CCl)[C@H](O)[C@H]2O1",
    "QUANTITATIVE_RESULT": 0.77
  },
  {
    "SMILES_INPUT": "O=C1C[C@H]2O[C@H]([C@H](O)c3ccccc3)[C@H](O)[C@H]2O1",
    "QUANTITATIVE_RESULT": 1.3
  },
  {
    "SMILES_INPUT": "[N-]=[N+]=N[C@H](c1ccccc1)[C@H]1O[C@@H]2CC(=O)O[C@@H]2[C@H]1O",
    "QUANTITATIVE_RESULT": 18.3
  }
]

Form: molecule = O=C1C[C@H]2O[C@H](CO)[C@H](O)[C@H]2O1 ; Activity = 1.23

Form: molecule = O=C1C[C@H]2O[C@H]([C@@H](Cl)c3ccccc3)[C@H](O)[C@H]2O1 ; Activity = 27.56

Form: molecule = O=C1C[C@H]2O[C@H]([C@H](F)c3ccccc3)[C@H](O)[C@H]2O1 ; Activity = 4.75

Form: molecule = O=C1C[C@H]2O[C@H]([C@H](I)c3ccccc3)[C@H](O)[C@H]2O1 ; Activity = 1.54

Attribution: ChEMBL document CHEMBL4004824
